TARGET_ENTITY: murine Pgp (Mdr1a) (Mus musculus)
Sequence (P21447 whole entry): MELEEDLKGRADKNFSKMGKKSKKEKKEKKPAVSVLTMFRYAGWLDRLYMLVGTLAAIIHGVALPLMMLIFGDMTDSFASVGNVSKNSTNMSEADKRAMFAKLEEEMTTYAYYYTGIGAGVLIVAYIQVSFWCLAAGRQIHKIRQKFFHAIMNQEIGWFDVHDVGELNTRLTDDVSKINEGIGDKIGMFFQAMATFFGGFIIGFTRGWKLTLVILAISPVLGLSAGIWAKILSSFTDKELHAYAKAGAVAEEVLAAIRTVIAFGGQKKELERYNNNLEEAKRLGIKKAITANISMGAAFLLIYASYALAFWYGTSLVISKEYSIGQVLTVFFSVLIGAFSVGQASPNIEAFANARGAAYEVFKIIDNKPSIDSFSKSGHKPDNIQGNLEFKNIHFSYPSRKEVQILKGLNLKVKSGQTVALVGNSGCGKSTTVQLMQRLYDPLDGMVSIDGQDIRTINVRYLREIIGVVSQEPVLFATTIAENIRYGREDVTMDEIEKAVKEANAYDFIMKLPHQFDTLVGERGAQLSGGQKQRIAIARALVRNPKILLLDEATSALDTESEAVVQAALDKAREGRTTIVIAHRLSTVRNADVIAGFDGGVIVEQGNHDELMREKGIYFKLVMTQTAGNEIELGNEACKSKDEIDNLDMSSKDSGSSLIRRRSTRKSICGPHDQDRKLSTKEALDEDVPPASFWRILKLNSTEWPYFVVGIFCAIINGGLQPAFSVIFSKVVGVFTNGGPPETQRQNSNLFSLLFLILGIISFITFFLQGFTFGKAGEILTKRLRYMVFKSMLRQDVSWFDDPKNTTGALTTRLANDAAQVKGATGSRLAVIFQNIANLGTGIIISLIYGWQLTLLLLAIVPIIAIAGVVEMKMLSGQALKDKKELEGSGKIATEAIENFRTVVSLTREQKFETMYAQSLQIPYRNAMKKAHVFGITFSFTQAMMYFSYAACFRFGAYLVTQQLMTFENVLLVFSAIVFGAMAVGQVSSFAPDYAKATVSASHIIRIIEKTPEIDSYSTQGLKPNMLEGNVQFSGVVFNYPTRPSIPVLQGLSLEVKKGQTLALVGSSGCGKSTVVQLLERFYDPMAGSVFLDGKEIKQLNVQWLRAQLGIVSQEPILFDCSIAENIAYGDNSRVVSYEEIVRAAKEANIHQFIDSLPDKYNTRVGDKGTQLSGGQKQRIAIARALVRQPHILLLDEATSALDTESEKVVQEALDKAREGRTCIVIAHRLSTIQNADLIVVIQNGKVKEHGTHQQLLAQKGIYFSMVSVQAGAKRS
ASSAY_PROCEDURE: Intracellular accumulation of rhodamine 123 in Mdr1a-LLCPK1 cells (Pgp transport function)
Assay type: cell-based
RECORDED_CONDITIONS: mouse, probe rhodamine 123 (10 μM); Hill model; reached at 50 μM of fumagillin; read-out: maximum effect (Emax), Rho123 accumulation as percentage of the VSP effect
RECORDED_ENDPOINT: Emax at 2 h, 50 μM (%)
One number for each entry, in %.

Endpoint output: Emax at 2 h, 50 μM of CO[C@@H]1[C@H](OC(=O)/C=C/C=C/C=C/C=C/C(=O)O)CC[C@]2(CO2)[C@H]1[C@@]1(C)O[C@@H]1CC=C(C)C [fumagillin] . Value?
43.7

====

TARGET_ENTITY: murine Pgp (Mus musculus)
ASSAY_PROCEDURE: Intracellular accumulation of rhodamine 123 in Mdr1a-LLCPK1 cells (Pgp transport function)
RECORDED_CONDITIONS: Rho123 accumulation in Mdr1a-LLCPK1, Hill model; read-out: EC50, concentration necessary to reach 50% of the maximum effect
RECORDED_ENDPOINT: pEC50
Give bare numbers, as −log10 of the molar value.

Endpoint output: pEC50 of CO[C@@H]1[C@H](OC(=O)/C=C/C=C/C=C/C=C/C(=O)O)CC[C@]2(CO2)[C@H]1[C@@]1(C)O[C@@H]1CC=C(C)C . Value?
5.00
